System: Dermatophyten, Schimmelpilze, Hefen
Assay: Antifungal in-vitro activity, serial dilution test
Format: cell-based
Settings: incubation at 28°C, 24 h for yeasts, 96 h for dermatophytes and moulds, activity stated to be superior to prior-art compounds (A), (B), (C) and (D)
assay.endpoint: Antimykotische in-vitro-Wirksamkeit (Wirkung)

molecule | system.name | reported.value
Clc1ccccc1C(Cn1ccnc1)c1ccc(-c2ccccc2)cc1 (stereo not shown) [Beispiel 5] | Dermatophyten, Schimmelpilze, Hefen | sehr gute Wirkung
Clc1ccc(-c2ccc(C(Cn3cncn3)c3ccccc3Cl)cc2)cc1 (stereo not shown) [Beispiel 8] | Dermatophyten, Schimmelpilze, Hefen | sehr gute Wirkung
Fc1ccccc1C(Cn1ccnc1)c1ccc(-c2ccccc2)cc1 (stereo not shown) [Beispiel 6] | Dermatophyten, Schimmelpilze, Hefen | sehr gute Wirkung
Clc1cccc(C(Cn2ccnc2)c2ccc(-c3ccccc3)cc2)c1 (stereo not shown) [Beispiel 7] | Dermatophyten, Schimmelpilze, Hefen | sehr gute Wirkung
